- TARGET: Growth hormone secretagogue receptor type 1 (Homo sapiens, UniProt Q92847)
- Sequence (Q92847 whole entry): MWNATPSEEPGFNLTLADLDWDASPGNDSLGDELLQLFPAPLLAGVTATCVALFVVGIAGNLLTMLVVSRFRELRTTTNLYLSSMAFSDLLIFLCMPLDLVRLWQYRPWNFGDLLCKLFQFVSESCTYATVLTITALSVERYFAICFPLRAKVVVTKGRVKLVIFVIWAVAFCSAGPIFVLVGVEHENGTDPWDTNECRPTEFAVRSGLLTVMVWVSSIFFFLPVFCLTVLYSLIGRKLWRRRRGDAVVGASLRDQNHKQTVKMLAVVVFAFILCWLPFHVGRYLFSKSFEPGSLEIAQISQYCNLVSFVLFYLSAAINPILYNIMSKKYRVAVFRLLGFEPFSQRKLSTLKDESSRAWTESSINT
- RUN DESCRIPTION: Antagonist activity at human GHSR1 expressed in CHO-CREluc cells after 4 hrs by Luciferase reporter assay
pIC50: −log10 of the molar value.
QUANTITY MEASURED: pIC50

In the examples that follow, each entry is paired with its recorded pIC50.
{"COMPOUND": "CN1CCN(CC(=O)NC2(c3ccc(Cl)cc3)C(=O)Nc3cc(Cl)ccc32)CC1 (single isomer, unassigned; (+))", "QUANTITY MEASURED": "pIC50", "QUANTITATIVE READOUT": 6.85}
{"COMPOUND": "COc1ccc(C2(NC(=O)CN3CCN(C)CC3)C(=O)Nc3cc(Cl)c(Cl)cc32)cc1 (single isomer, unassigned; (+))", "QUANTITY MEASURED": "pIC50", "QUANTITATIVE READOUT": 6.15}
{"COMPOUND": "CN1CCN(CC(=O)NC2(c3ccc(C(C)(C)C)cc3)C(=O)Nc3cc(Cl)c(Cl)cc32)CC1 (single isomer, unassigned; (+))", "QUANTITY MEASURED": "pIC50", "QUANTITATIVE READOUT": 5.83}
{"COMPOUND": "CN1CCN(CC(=O)NC2(c3ccc(Cl)cc3)C(=O)Nc3cc(Cl)c(Cl)c(Cl)c32)CC1 (racemic)", "QUANTITY MEASURED": "pIC50", "QUANTITATIVE READOUT": 6.56}
{"COMPOUND": "CN1CCN(CC(=O)NC2(c3ccc(Cl)c(Cl)c3)C(=O)Nc3cc(Cl)ccc32)CC1 (single isomer, unassigned; (+))", "QUANTITY MEASURED": "pIC50", "QUANTITATIVE READOUT": 6.95}

(A) CCN1CCC(CC(=O)NC2(c3ccc(Cl)c(Cl)c3)C(=O)Nc3cc(Cl)cc(Cl)c32)CC1 (single isomer, unassigned; (+))
(B) CN(C)[C@@H]1CCN(CC(=O)NC2(c3ccc(Cl)c(Cl)c3)C(=O)Nc3cc(Cl)cc(Cl)c32)C1 (some centres not stated)
I need your help: which of the pair A , B has higher pIC50? Write the label of whichever entry you select.
A
(A: 9.00, B: 7.60)
